System: MS2 coat protein
Experiment: apparent KD of MS2 coat protein; higher = weaker reporter binding
Conditions: Eterna round: R107; input ligand: tryptophan 2.4 mM
Please respond with reported apparent KD of MS2 coat protein for every item in the list.
Numbers only, in µM.

Completed entries (count: 2):
>  <entry.sequence>
UGGUAUGUAGGAAGGAGCGCAUACUUCACAUGAGGAUCACCCAUGUCGAGACGUGAGUCAGUGCAGGUAGGUCGCCUAGUUAUGA [Same State - Arginine B (Freestyle 22)]

>  <endpoint.name>
apparent KD of MS2 coat protein

>  <value.observed>
0.029

$$$$
>  <entry.sequence>
AACAUGAGGAUCACCCAUGUAAUAUGGGAUACCAGAGACGAAAGUCUCCCUUGGCAGCCCAAGCUGCUCCAUACGAAAGUAUGGU [Theophylline A 16]

>  <endpoint.name>
apparent KD of MS2 coat protein

>  <value.observed>
0.0647

$$$$

Data request: Please supply the value of reported apparent KD of MS2 coat protein for the item GGACUAACCUGAAGGAGCGACGCGCAGAAACUGCAAUUUCCUCCACACGAGGAUCACCCGUGUCAGGUAGGUCGCAGGUUAGUCG [ArgBX 29]
Data returned: 0.0153

---

Please respond with reported apparent KD of K4 kissing-loop reporter for every item in the list.
Tested on: K4 kissing-loop RNA reporter
Experiment: apparent KD of K4 kissing-loop reporter; higher = weaker reporter binding
Details: Eterna round: R107; input ligand: FMN 200 uM
Show the value, then the unit it is measured in.

Completed entries (count: 4):
>  <entry.sequence>
AAAAUAAAUCAGUGAUGUUGGUAUCUGGAUACCAGCGAUAAUAAUCGCCCUUGGCAGCCAUGGACGUACAAAAUAAGUACGUCCU [MatMod 18 - Jieux - Same State - Theophylline A]

>  <target.desc>
K4 kissing-loop RNA reporter

>  <apparent KD of K4 kissing-loop reporter>
0.285 µM

$$$$
>  <entry.sequence>
CCAUCGCUAUUCGAUACCAGCCAAGAGGUCUUUGGCCUCUUAAUGGAGUGAUGUUCCAUUGGCCCUUGGCAGCGAAUAGUGAUGG [Theophylline B K4 18]

>  <target.desc>
K4 kissing-loop RNA reporter

>  <apparent KD of K4 kissing-loop reporter>
0.771 µM

$$$$
>  <entry.sequence>
UAAUAAAUUCCAGCUAUAUCACUCUUCGAAGGAGCGGACGAAAGUCCAGGUAGGUCGCGAAGAGUGAUGUUCUUUGCGGCGCUGG [Omei KL Arginine A Exc A v5]

>  <target.desc>
K4 kissing-loop RNA reporter

>  <apparent KD of K4 kissing-loop reporter>
0.0941 µM

$$$$
>  <entry.sequence>
AAAACUAUCAGAAGGAGCGUGGAAUAUUCAUCUGUAUCUAAUACGAGUGAUGUUCGUAAUUCACAGGUAGGUCGCUGAUCAAUAA [whbob_Ex_Arginine_B_2th155]

>  <target.desc>
K4 kissing-loop RNA reporter

>  <apparent KD of K4 kissing-loop reporter>
0.255 µM

$$$$

Next item in the queue.
Data request: Please supply the value of reported apparent KD of K4 kissing-loop reporter for the item GACGUUGAAGCGGCCGCCACUAGGAAGGGUACGGAGAGUACAUCUCACGGAGAGUGAUGUUCUCAUAGGACCGGGCUCAUAUCAA [theeternabot_sameState_KL_Trp_B_21]
Data returned: 0.308 µM

---

Tested on: MS2 coat protein
Test: apparent KD of MS2 coat protein, switch ON state; designed switch direction (-1 OFF switch, 1 ON switch): 1; higher = weaker reporter binding
Conditions: FMN input: 0 or 200 uM; Eterna round: R93 (includes R88 designs)
// bucketize apparent KD of MS2 coat protein: bin 1 (below 30 nM), bin 2 (30 nM to below 70 nM), bin 3 (70 nM or more)

Observe how each entry below is paired with its result.
>  <entry.sequence>
AAAACACAUGAGGAUCACCCAUGUAGAAAUACGGGAGGAUAUACGAAAACGAAAGACAAAGUAGAAGGCCUAAAAG [saturn 7]

>  <label.class>
bin 2

$$$$
>  <entry.sequence>
AACUAACAUGAGGAUCACCCAUGUUACAGCAGUUGAGGAUAUGUGGGUGAAAAUAGCAUGGCAGAAGGCGAGUGUA [SameState1 Malc#24]

>  <label.class>
bin 2

$$$$
>  <entry.sequence>
AAAUAACAUGAGGAUCACCCAUGUGGGCUUAAGCAAGGAUAUGGGCACUCAAAAGUAGCGCCAGAAGGUGCAGUCG [Anrabitien]

>  <label.class>
bin 2

$$$$

Data request: Please classify: GAGAGACAUGAGGAUCACCCAUGUAGGAUUAUGGGAGGAUAUACAAAGACGAGAGUCAGAGUAGAAGGCCUAGGAC [salish99-ss1-140]
Data returned: bin 1

Data request: Please classify: UAUAGACAUGAGGAUCACCCAUGUAGAAUUAUGGGAGGAUAUACAAAGACGAGAGUCAGAGUAGAAGGCCUAGGAG [salish99-ss1-153]
Data returned: bin 2

Data request: Please classify: AGAAAUAAAAAUGAGGAUAUGCAAAAGAAAACAUGAGGAUCACCCAUGUAAAAGAAAAUAAAUGGGCAGAAGGCAUGAAAUAAAGA [Helter Skelter 3]
Data returned: bin 2

Data request: Please classify: AAAAGAGCGACACAGGAUAUGUUGACUCUAACAUGAGGAUCACCCAUGUGCAUUUAGGGUCGUGCGCAGAAGGGUGUAGCUCGGA [Laesbibiti]
Data returned: bin 1

Data request: Please classify: UCCUUACAUGAGGAUCACCCAUGUCGCAGGAAUCAAGGAUAUGGGACCGCAAGACGGAAACCAGAAGGUGAAAUAU [Gedizala]
Data returned: bin 3

Data request: Please classify: AAUAACAAAAGAAAGGAUAUGCGCACAGGAACAUGAGGAUCACCCAUGUGGCCCGAAAGGGCAUAGCAGAAGGUUCACACGCAUA [Default title]
Data returned: bin 2

---

System: K4 kissing-loop RNA reporter;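 further: bound reporter read as fluorescence of individual clusters on recovered sequencing chips by microscopy, with normalized cluster intensities fitted with a binding model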
Assay: apparent KD of K4 kissing-loop reporter; higher = weaker reporter binding
Settings: Eterna round: R107; input ligand: none
Please respond with reported apparent KD of K4 kissing-loop reporter for every item in the list.
One number for each entry, in nM.

Completed entries (count: 3):
>  <entry.sequence>
GGUAUCCAGUACCAUUGCGUUAAAACAGAAGGAGCGAGAAUAGACUCAGGUAGGUCGCUGUUUAUAGUCGAGUGAUGUUCGAAUC [Same State Arginine A GF 14]

>  <apparent KD of K4 kissing-loop reporter, nM>
265

$$$$
>  <entry.sequence>
AGACUACUGAUAGGAUAUAACAUCCUAGUCGUAUACCGAAAGGUAUACGAAACCCUUCUAGUGAUGUUAGAAGGGUCGGUAGUCA [Omei KL FMN B Exc B v9]

>  <apparent KD of K4 kissing-loop reporter, nM>
80.9

$$$$
>  <entry.sequence>
CCAUCGCUAUUCGAUACCAGCCAAGAGGUCUUUGGCCUCUUAAUGGAGUGAUGUUCCAUUGGCCCUUGGCAGCGAAUAGUGAUGG [Theophylline B K4 18]

>  <apparent KD of K4 kissing-loop reporter, nM>
723

$$$$

Return reported apparent KD of K4 kissing-loop reporter values for all items listed beneath this line.
1. UGAACCCGGUCGGCCGCCACUCUGAGAACCAUCGCCCUACGUGCAGUGAUGUUGUACCUAAUGAGGAGGACCGGGACUGGGCGGC [theeternabot_sameState_KL_Trp_B_36]
2. AGUGACGUCGCGGCCGCCACUGAAAUGACAGUGAUGUUGUCAAAAGAAAGUGAUGUUAAGAAAUGCAGGACCGGGUGAUAGAAAA [semi-accidental]
3. GUCCAACCUGGAGGAUAUCUGCUGUCCAGUGAUGUUGGACACCUUAGUAAAGGCCGGGUAGCCCGCAGAGAAGGCCGGAGUUGCC [Isateron]

Data returned:
360
158
429

---

System: MS2 coat protein
Experiment: apparent KD of MS2 coat protein, switch OFF state (with FMN for OFF switches, without FMN for ON switches); designed switch direction (-1 OFF switch, 1 ON switch): -1; higher = weaker reporter binding
Details: FMN input: 0 or 200 uM; Eterna round: R93 (includes R88 designs)
Please respond with reported apparent KD of MS2 coat protein for every item in the list.
Numbers only, in nM.

Return reported apparent KD of MS2 coat protein values for all items listed beneath this line.
1. UAAAAACAUGAGGAUCACCCAUGUGAGGAUAUACGAAAGUAGAAGGCACUAAAAUAAAAUAGAAGGAUAAAAUA [Meechl Ex1 R2 m1]
2. CCUGAACAUGAGGAUCACCCAUGUGAGGAUAUGAUGCGAAUAAAGAAAGAAGAAAGCAUCAGAAGGCACAUAGG [Mod of Disincluded 3 v.4]
3. AAGAAGUGAGGAUAUGCAAAAGAAAAGAAAAGAAAAGAAAAGCAGAAGGCACAUGAGGAUCACCCAUGUAAGAA [Petubastis III]

Data returned:
1: 37.5; 2: 43.4; 3: 28.9

Return reported apparent KD of MS2 coat protein values for all items listed beneath this line.
1. AAGAAGAUAGGAUAUACAAAAUAAAAGAAAAGAAAGAAAGAACAUGAGGAUCACCCAUGUAGAAGGGUCAAGAA [Kheperkare Senusret I]
2. AGCUAGUGAGGAUAUACGAACACGUAACAGGACUGUAAGGGACAUGAGGAUCACCCAUGUAGAAGGCACUAGCA [Diamond 61]

Data returned:
[56.5, 77]

Data request: Please supply the value of reported apparent KD of MS2 coat protein for the item AAAGGAUCAGGAUAUGUGUGGAAAAAGUGUAUCCGAAAAAAACAUGAGGAUCACCCAUGUAGAAGGGAUCCAAA [Mod 3 of Normal (20/19) by Nando, Round 1]
Data returned: 464
